propertyLabel: melting point

These solved cases illustrate the format of a correct answer.
COc1ccccc1NC(=O)Cc1ccc(NC(=O)CCc2oc(-n3cnc4ccccc43)nc2-c2ccc(Cl)cc2)cc1 = 258 to 259 °C
COc1cc(CNC(=O)CCc2oc(-n3cnc4ccccc43)nc2-c2ccc(Cl)cc2)cc(OC)c1 = 198 to 200 °C
CN(Cc1ccc(NC(=O)CCc2oc(-c3ccccc3)nc2-c2ccc(Cl)cc2)cc1)C1CCOCC1 = 154 to 155 °C

Read the next record carefully.
IN: Returns the measured melting point for the input compound. Input: NC(=O)CCc1oc(-c2ccc(F)cc2)nc1-c1ccc(Cl)cc1
OUT: 212 to 213 °C

* * *

propertyLabel: melting point

These solved cases illustrate the format of a correct answer.
CCOP(=O)(Cc1ccc(NC(=O)CCCc2oc(N3CCCC3)nc2-c2ccc(Cl)cc2)cc1)OCC = 127 to 128 °C
O=C(CCc1oc(-n2cnc3ccccc32)nc1-c1ccc(Cl)cc1)NCc1ccccc1C(F)(F)F = 208 to 209 °C

IN: Returns the measured melting point for the input compound. Input: NS(=O)(=O)c1ccc(CNC(=O)CCc2oc(-n3cnc4ccccc43)nc2-c2ccc(Cl)cc2)cc1
OUT: 255 to 256 °C

IN: Returns the measured melting point for the input compound. Input: O=C(CCc1oc(-n2cnc3ccccc32)nc1-c1ccc(Cl)cc1)NCc1ccncc1
OUT: 214 to 216 °C

IN: Returns the measured melting point for the input compound. Input: COP(=O)(Cc1ccc(NC(=O)CCc2oc(-c3ccccc3)nc2-c2ccc(Cl)cc2)cc1)OC
OUT: 153 to 154 °C

IN: Returns the measured melting point for the input compound. Input: CCS(=O)(=O)CCNC(=O)CCc1oc(-n2cnc3ccccc32)nc1-c1ccc(Cl)cc1
OUT: 182 to 183 °C

IN: Returns the measured melting point for the input compound. Input: O=C(CCc1oc(-n2cnc3ccccc32)nc1-c1ccc(Cl)cc1)NCc1cc(F)cc(C(F)(F)F)c1
OUT: 198 to 200 °C

* * *

propertyLabel: melting point

CCOP(=O)(OCC)C(F)c1ccc(NC(=O)CCc2oc(-n3cnc4ccccc43)nc2-c2ccc(Cl)cc2)cc1 (stereo not drawn) = 152 to 155 °C
Cc1ccc(CNC(=O)CCc2oc(-c3ccccc3)nc2-c2ccc(Cl)cc2)cc1 = 193 to 194 °C
O=C(CCc1oc(-n2cnc3ccccc32)nc1-c1cccc(Cl)c1)N1CCC(O)CC1 = 97 to 98 °C

IN: Returns the measured melting point for the input compound. Input: CCOP(=O)(Cc1ccc(NC(=O)CCc2oc(-n3ccnc3C)nc2-c2ccc(Cl)cc2)cc1)OCC
OUT: 158 to 159 °C

IN: Returns the measured melting point for the input compound. Input: CCOP(=O)(Cc1ccc(NC(=O)CCCCCc2sc(-n3cnc4ccccc43)nc2-c2ccc(Cl)cc2)cc1)OCC
OUT: 149 to 151 °C

IN: Returns the measured melting point for the input compound. Input: NC(=O)/C=C/c1oc(-c2ccccc2)nc1-c1ccc(Cl)cc1
OUT: 240 to 241 °C

* * *

propertyLabel: melting point

These solved cases illustrate the format of a correct answer.
O=C(CCc1oc(-n2cnc3ccccc32)nc1-c1ccc(Cl)cc1)NC1CCC(O)CC1 (centres unmarked) [Example 304] = 204 to 206 °C
O=C(CCc1oc(-n2cnc3ccccc32)nc1-c1ccc(Cl)cc1)N1CCS(=O)(=O)C1 [Example 344] = 136 to 137 °C
CS(=O)(=O)C1CCN(C(=O)CCc2oc(-n3cnc4ccccc43)nc2-c2ccc(Cl)cc2)CC1 [Example 307] = 215 to 216 °C
CCOP(=O)(Cc1ccc(NC(=O)CCc2sc(-n3cnc4ccccc43)nc2C(C)C)cc1)OCC = 171 to 172 °C
CCOP(=O)(OCC)c1ccc(NC(=O)CCc2sc(-c3ccccc3)nc2-c2ccc(Cl)cc2)cc1 = 186 to 187 °C

Read the next record carefully.
IN: Returns the measured melting point for the input molecule. Input: NC(=O)c1ccc(NC(=O)CCc2oc(-c3ccccc3)nc2-c2ccc(Cl)cc2)cc1 [Example 66]
OUT: 268 to 269 °C

* * *

Reported melting point by item:

These solved cases illustrate the format of a correct answer.
NC(=O)CCc1oc(C2CCCCC2)nc1-c1ccc(Cl)cc1 [Example 17] = 142 to 143 °C
CCOP(=O)(Cc1ccc(NC(=O)CCc2oc(-n3cnc4ccccc43)nc2-c2ccc(F)cc2)cc1)OCC = 95 to 96 °C
CCOP(=O)(Cc1ccc(NC(=O)CCc2oc(C)nc2-c2ccc(Cl)cc2)cc1)OCC = 155 to 156 °C
O=C(CCc1oc(-n2cnc3ccccc32)nc1-c1ccc(Cl)cc1)NCc1cc(F)cc(F)c1 [Example 164] = 155 to 156 °C

IN: Returns the measured melting point for the input molecule. Input: CCOP(=O)(Cc1ccc(NC(=O)CCc2oc(Sc3ncccn3)nc2-c2ccc(Cl)cc2)cc1)OCC
OUT: 146 to 147 °C

IN: Returns the measured melting point for the input molecule. Input: CCOP(=O)(Cc1ccc(NC(=O)CCc2oc(-n3nnc4ccccc43)nc2-c2ccc(Cl)cc2)cc1)OCC
OUT: 91 to 92 °C

IN: Returns the measured melting point for the input molecule. Input: N#CCc1ccc(NC(=O)CCCCc2sc(-n3cnc4ccccc43)nc2-c2ccc(Cl)cc2)cc1 [Example 223]
OUT: 187 to 188 °C

IN: Returns the measured melting point for the input molecule. Input: CCOP(=O)(Cc1ccc(NC(=O)Cc2sc(-n3cnc4ccccc43)nc2-c2ccc(Cl)cc2)cc1)OCC
OUT: 154 to 155 °C

IN: Returns the measured melting point for the input molecule. Input: CN(C)c1ccc(NC(=O)Cc2ccc(NC(=O)CCc3oc(-n4cnc5ccccc54)nc3-c3ccc(Cl)cc3)cc2)cc1 [Example 140]
OUT: 169 to 170 °C

IN: Returns the measured melting point for the input molecule. Input: CCOP(=O)(Cc1ccc(NC(=O)CCc2oc(Cc3ccccc3)nc2-c2ccc(Cl)cc2)cc1)OCC
OUT: 161 to 162 °C

IN: Returns the measured melting point for the input molecule. Input: Cc1nc(-c2ccc(Cl)cc2)c(CCC(=O)N2CCS(=O)(=O)CC2)o1 [Example 241]
OUT: 124 to 125 °C

IN: Returns the measured melting point for the input molecule. Input: CCOP(=O)(Cc1ccc(NC(=O)CCc2sc(-n3cnc4ccccc43)nc2C(C)(C)C)cc1)OCC
OUT: 155 to 156 °C

IN: Returns the measured melting point for the input molecule. Input: NC(=O)CCc1oc(-c2ccc3ccccc3c2)nc1-c1ccc(Cl)cc1 [Example 24]
OUT: 206 to 207 °C

IN: Returns the measured melting point for the input molecule. Input: O=C(CCc1oc(-n2cnc3ccccc32)nc1-c1ccc(Cl)cc1)NCc1ccc(F)cc1Cl [Example 168]
OUT: 196 to 198 °C

IN: Returns the measured melting point for the input molecule. Input: CCOP(=O)(Cc1ccc(NC(=O)CCc2oc(-n3cnc4ccccc43)nc2-c2ccc(OC)cc2)cc1)OCC
OUT: 143 to 144 °C

IN: Returns the measured melting point for the input molecule. Input: Cc1ccc(CNC(=O)CCc2oc(-n3cnc4ccccc43)nc2-c2ccc(Cl)cc2)cc1 [Example 146]
OUT: 210 to 212 °C

* * *

Reported melting point by item:

O=C(CCc1oc(-n2cnc3ccccc32)nc1-c1ccc(Cl)cc1)NCc1cc(Br)ccc1F [Example 167] = 183 to 184 °C
COc1cc(OC)c(CNC(=O)CCc2oc(-n3cnc4ccccc43)nc2-c2ccc(Cl)cc2)c(OC)c1 [Example 161] = 206 to 208 °C
CNC(=O)Cc1ccc(NC(=O)CCc2oc(-n3cnc4ccccc43)nc2-c2ccc(Cl)cc2)cc1 [Example 143] = 219 to 221 °C

IN: Returns the measured melting point for the input molecule. Input: CCOP(=O)(Cc1ccc(NC(=O)CCc2oc(-c3ccc(OC)cc3)nc2-c2ccc(Cl)cc2)cc1)OCC
OUT: 141 to 142 °C

* * *

propertyLabel: melting point

O=C(CCc1oc(-n2cnc3ccccc32)nc1-c1ccc(Cl)cc1)NCc1ccc(Br)cc1 = 205 to 206 °C

Read the next record carefully.
IN: Returns the measured melting point for the input molecule. Input: O=C(CCc1oc(-n2cnc3ccccc32)nc1-c1ccc(Cl)cc1)NCC(=O)Nc1ccccc1
OUT: 250 to 251 °C

* * *

propertyLabel: melting point

These solved cases illustrate the format of a correct answer.
O=C(CCc1oc(-n2cnc3ccccc32)nc1-c1ccc(Cl)cc1)NCCOc1ccccc1 = 156 to 157 °C
O=C(CCc1oc(-n2cnc3ccccc32)nc1-c1ccc(Cl)cc1)Nc1ccc(Cl)cc1 = 248 to 249 °C
O=C(CCc1oc(-n2cnc3ccccc32)nc1-c1ccc(Cl)cc1)NCc1ccc(-c2csnn2)cc1 = 173 to 174 °C
CCCc1nc(-c2ccc(Cl)cc2)c(CCC(=O)Nc2ccc(CP(=O)(OCC)OCC)cc2)o1 = 108 to 109 °C
CCOP(=O)(Cc1ccc(NC(=O)CCc2sc(N)nc2-c2ccc(Cl)cc2)cc1)OCC = 177 to 178 °C

IN: Returns the measured melting point for the input molecule. Input: CCOP(=O)(Cc1ccc(NC(=O)CCc2sc(NC(=O)NC)nc2-c2ccc(Cl)cc2)cc1)OCC
OUT: 206 to 207 °C

IN: Returns the measured melting point for the input molecule. Input: CS(=O)(=O)CCNC(=O)CCc1oc(-n2cnc3ccccc32)nc1-c1ccc(Cl)cc1
OUT: 194 to 195 °C

IN: Returns the measured melting point for the input molecule. Input: N#CCc1ccc(NC(=O)CCc2oc(-c3ccccc3)nc2-c2ccc(Cl)cc2)cc1
OUT: 212 to 214 °C
